- assay.protocol: plasma levels by HPLC after intraperitoneal and oral administration to rats
- Type: in vivo
- study.conditions: plasma, po; rat, 50 mg/kg os, 0.50 h; read-out: Plasma level
- Experimental: We give hereinafter in Table 2 the haematic levels of compound (h) as measured in plasma by HPLC. Each value is the average of three tested rats. More precisely in FIG. 1 the plasma levels in rats versus the time, are reported, after i.p. administration of 10 mg/kg and 25 mg/kg of compound (h), while in FIG. 2 the plasma levels are reported of compound (h) in rats, versus the time, after oral administration of 25, 50 and 100 mg/kg of said compound.
metric: concentration at 0.5 h (ng/mL)

compound="CN1CCN(c2c(F)cc3c(=O)c(C(=O)O)cn4c3c2SCC4)CC1 [Compound (h)]" unit_string=ng/mL obs_value=8750

// data source = patent US4684647A
